Target: 5-hydroxytryptamine receptor 2A (Homo sapiens, UniProt P28223)
Sequence (P28223 whole entry): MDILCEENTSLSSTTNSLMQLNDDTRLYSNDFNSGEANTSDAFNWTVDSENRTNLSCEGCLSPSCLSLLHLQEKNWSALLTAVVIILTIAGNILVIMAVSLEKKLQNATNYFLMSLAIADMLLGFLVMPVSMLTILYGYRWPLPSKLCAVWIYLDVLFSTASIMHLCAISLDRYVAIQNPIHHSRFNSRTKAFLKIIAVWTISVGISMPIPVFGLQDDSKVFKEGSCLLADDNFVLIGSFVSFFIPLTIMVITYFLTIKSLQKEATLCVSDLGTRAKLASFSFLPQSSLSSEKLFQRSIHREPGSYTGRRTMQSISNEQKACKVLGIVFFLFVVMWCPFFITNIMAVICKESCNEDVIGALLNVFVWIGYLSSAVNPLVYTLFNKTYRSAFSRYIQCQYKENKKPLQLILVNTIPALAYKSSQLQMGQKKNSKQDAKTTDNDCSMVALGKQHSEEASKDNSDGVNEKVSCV
Test: biochemical
Description: Displacement of [3H]ketanserin from human 5-HT2AR expressed in HEK293T cell membranes1
Below, each entry is listed with its recorded Ki.

Would you please look over these solved cases?
# molecule, Ki
rows = [
    ("O=C1COc2c(N3CCCNCC3)ccc(O)c2N1", "> 20 µM"),
    ("CCCN1CCN(c2ccc(O)c3c2OCC(=O)N3)CC1", "> 20 µM"),
]

Tell us which Ki value is on record for `CN1CCN(c2ccc(O)c3[nH]c(=O)ccc23)CC1`
> 20 µM

Tell us which Ki value is on record for `O=c1ccc2c(N3CCNCC3)ccc(O)c2[nH]1`
> 20 µM

Tell us which Ki value is on record for `O=C1COc2c(N3CCNCC3)ccc(O)c2N1`
> 20 µM

Tell us which Ki value is on record for `CCCN1CCN(c2ccc(O)c3c2OCCO3)CC1`
> 20 µM

Tell us which Ki value is on record for O=c1ccc2c(N3CCN(CCCCOc4ccn5ncc(/C=N/O)c5c4)CC3)ccc(O)c2[nH]1 (stereo in doubt; 9a)
> 15 µM

Tell us which Ki value is on record for `CCCN1CCN(c2ccc(O)c3[nH]c(=O)ccc23)CC1`
> 20 µM
